- subject.of.test: LC3A (recombinant, BLI) (human, UniProt Q9H492 1-121)
- test.method.notes: BLI
Ends that are not written are not given here.
quantity.kind: pKd
Scale: pKd equals -log10([C]), with [C] in mol/L.

In: For the binder NISQKSDEEDFDIIEDLPLKLTIY (also: biotin, position not given here) [PCM1 FDII LIR peptide (BLI)] , report pKd.
Out: 5.34

In: Look up pKd of NISQKSDEEDFVIVEDLPLKLTIY (also: biotin, position not given here) [PCM1 K1957I LIR peptide (BLI)] and report it.
Out: 5.41

In: Hello, please tell me recorded pKd for this one: TDYRPPDDAVFDIITDEELCQIQE (24-mer limits inferred: 10 residues on each side of the core FDII (1280-1283), as in the arrays; exact peptide is in Supplementary Table 2. N- or C-terminal biotin if used in BLI, cellulose-bound if in the array) [FYCO1 WT LIR peptide]
Out: 6.11
